Here, each record is paired with measured pIC50 data.
- Study Target: recombinant human DPPI (Cathepsin C) (Homo sapiens (Human), UniProt P53634)
- Sequence (P53634 231-394): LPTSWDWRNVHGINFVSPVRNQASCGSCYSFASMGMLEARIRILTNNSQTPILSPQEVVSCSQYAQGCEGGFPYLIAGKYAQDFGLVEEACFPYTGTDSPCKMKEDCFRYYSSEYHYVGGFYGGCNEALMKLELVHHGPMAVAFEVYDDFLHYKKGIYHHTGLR
- Sequence (P53634 395-463): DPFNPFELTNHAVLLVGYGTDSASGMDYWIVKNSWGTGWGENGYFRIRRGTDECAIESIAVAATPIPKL
- Sequence (P53634 25-134): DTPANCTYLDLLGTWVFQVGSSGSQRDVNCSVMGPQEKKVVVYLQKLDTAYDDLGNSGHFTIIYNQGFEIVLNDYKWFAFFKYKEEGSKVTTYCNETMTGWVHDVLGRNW
- Assay Comment: Inhibition of human DPPI (Cathepsin C)
- Settings: substrate Gly-Arg-AMC
pIC50: −log10 of the molar value.
Measure Name: pIC50

[[record]]
compound = "N#CC(Cc1ccc(-c2ccc(C(N)=O)cc2)cc1F)NC(=O)[C@H]1N[C@@H]2CC[C@H]1C2 (some centres unmarked)"
study_target = "recombinant human DPPI (Cathepsin C) (Homo sapiens (Human), UniProt P53634)"
recorded_value = 7.88

[[record]]
compound = "CN1C(=O)Cc2ccc(-c3ccc(CC(C#N)NC(=O)[C@H]4N[C@@H]5CC[C@H]4C5)c(F)c3)cc21 (some centres unmarked)"
study_target = "recombinant human DPPI (Cathepsin C) (Homo sapiens (Human), UniProt P53634)"
recorded_value = 8.70

[[record]]
compound = "CN1CCN(C(=O)c2coc(-c3ccc(C[C@@H](C#N)NC(=O)[C@H]4N[C@@H]5CC[C@H]4C5)c(F)c3)c2)CC1"
study_target = "recombinant human DPPI (Cathepsin C) (Homo sapiens (Human), UniProt P53634)"
recorded_value = 8.17

[[record]]
compound = "CN(C)C1CCCN(c2ccc(C[C@@H](C#N)NC(=O)[C@H]3N[C@@H]4CC[C@H]3C4)c(F)c2)C1 (some centres unmarked)"
study_target = "recombinant human DPPI (Cathepsin C) (Homo sapiens (Human), UniProt P53634)"
recorded_value = 8.00

[[record]]
compound = "CS(=O)(=O)c1ccc(-c2ccc(C[C@@H](C#N)NC(=O)[C@H]3N[C@@H]4CC[C@H]3C4)c(F)c2F)cc1"
study_target = "recombinant human DPPI (Cathepsin C) (Homo sapiens (Human), UniProt P53634)"
recorded_value = 8.18

[[record]]
compound = "N#C[C@H](Cc1ccc(-n2cc(-c3ccc4occc4c3)nn2)cc1F)NC(=O)[C@H]1N[C@@H]2CC[C@H]1C2"
study_target = "recombinant human DPPI (Cathepsin C) (Homo sapiens (Human), UniProt P53634)"
recorded_value = 7.86

[[record]]
compound = "N#CC(Cc1ccc2c(cnc3ccccc32)c1)NC(=O)[C@H]1N[C@@H]2CC[C@H]1C2 (some centres unmarked)"
study_target = "recombinant human DPPI (Cathepsin C) (Homo sapiens (Human), UniProt P53634)"
recorded_value = 7.37

[[record]]
compound = "CN1Cc2cc(-c3ccc(CC(C#N)NC(=O)[C@H]4N[C@@H]5CC[C@H]4C5)c(F)c3)ccc2C1=O (some centres unmarked)"
study_target = "recombinant human DPPI (Cathepsin C) (Homo sapiens (Human), UniProt P53634)"
recorded_value = 7.93

[[record]]
compound = "Cc1cc(-c2ccc(CC(C#N)NC(=O)[C@H]3N[C@@H]4CC[C@H]3C4)c(F)c2)n[nH]1 (some centres unmarked)"
study_target = "recombinant human DPPI (Cathepsin C) (Homo sapiens (Human), UniProt P53634)"
recorded_value = 8.08

[[record]]
compound = "CN1C(=O)Cc2ccc(-c3cc(F)c(CC(C#N)NC(=O)[C@H]4N[C@@H]5CC[C@H]4C5)c(F)c3)cc21 (some centres unmarked)"
study_target = "recombinant human DPPI (Cathepsin C) (Homo sapiens (Human), UniProt P53634)"
recorded_value = 8.06

[[record]]
compound = "N#CC(Cc1ccc(-c2ccoc2)cc1F)NC(=O)[C@H]1N[C@@H]2CC[C@H]1C2 (some centres unmarked)"
study_target = "recombinant human DPPI (Cathepsin C) (Homo sapiens (Human), UniProt P53634)"
recorded_value = 7.60

[[record]]
compound = "N#C[C@H](Cc1ccc(-c2ccco2)cc1F)NC(=O)[C@H]1N[C@@H]2CC[C@H]1C2"
study_target = "recombinant human DPPI (Cathepsin C) (Homo sapiens (Human), UniProt P53634)"
recorded_value = 7.95

[[record]]
compound = "CCc1ncc(-c2ccc(C[C@@H](C#N)NC(=O)[C@H]3N[C@H]4C[C@@H]3[C@@H]3C[C@@H]34)c(F)c2)s1"
study_target = "recombinant human DPPI (Cathepsin C) (Homo sapiens (Human), UniProt P53634)"
recorded_value = 7.44

[[record]]
compound = "CCOC(=O)c1ccc(-c2ccc(C[C@@H](C#N)NC(=O)[C@H]3N[C@@H]4CC[C@H]3C4)c(F)c2)s1"
study_target = "recombinant human DPPI (Cathepsin C) (Homo sapiens (Human), UniProt P53634)"
recorded_value = 8.12

